All values here come from patent US20080182859A1.

System: sonic hedgehog pathway
Experiment: Human hedgehog reporter assay HEPM-GliLuc (HGL)
Assay type: cell-based
Conditions: HepM human embryonic palatal mesenchymal cells, Gli-luciferase reporter
Source text: Mouse (TM3: mouse Leydig cells; S12: mouse embryonic mesenchymal cells) and human (Daoy: human medulloblastoma cell; HepM: human embryonic palatal mesenchymal cell) cell lines are used to screen small molecules for their ability to modulate the activity of the sonic hedgehog pathway (Table 1, Table 2, and Table 3). […]
Structures can show the parent of a compound that is named as a salt.
Readout: EC50

CN[C@H]1CC[C@@H](N(Cc2cc(-c3ccc(N(C)C=O)cc3)ccc2OC)C(=O)c2sc3ccccc3c2Cl)CC1 [Compound 315, trifluoroacetate] : 250 to 1000 nM
CCOc1ccc(-c2ccc(N(C)C)nc2)cc1CN(C(=O)c1sc2ccccc2c1Cl)[C@H]1CC[C@H](NC)CC1 [Compound 404, bis(trifluoroacetate)] : 250 to 1000 nM
CN[C@H]1CC[C@H](N(Cc2cc(-c3ccc(C(=O)C(F)(F)F)cc3)ccc2F)C(=O)c2sc3ccccc3c2Cl)CC1 [Compound 424, trifluoroacetate] : 250 to 1000 nM
CN[C@H]1CC[C@@H](N(Cc2cc(-c3ccncc3)ccc2OC)C(=O)c2sc3c(F)ccc(F)c3c2Cl)CC1 [Compound 342, dihydrochloride] : < 50 nM
CN[C@H]1CC[C@@H](N(Cc2cc(-c3ccncc3)ccc2OC)C(=O)c2sc3ccccc3c2Cl)CC1 [339 (R12)] : < 50 nM

Next item in the queue.
Param item = CN[C@H]1CC[C@@H](N(Cc2cc(-c3ccc(C#N)cc3)ccc2OC)C(=O)c2sc3c(F)ccc(F)c3c2Cl)CC1 [Compound 351, hydrochloride] ; retrieve measured EC50.
< 50 nM

* * *

tested on: sonic hedgehog pathway; assay: Human hedgehog reporter assay Daoy-GliLuc (DGL); format: cell-based; conditions: Daoy human medulloblastoma cells, Gli-luciferase reporter; read-out: Daoy Avg. EC50
Where a name gives a salt, the structure may show the parent alone.
Readout: EC50

CN[C@H]1CC[C@H](N(Cc2cc(-c3ccc(C(=O)C(F)(F)F)cc3)ccc2F)C(=O)c2sc3c(F)ccc(F)c3c2Cl)CC1 [Compound 434, hydrochloride] : < 50 nM
CN[C@H]1CC[C@H](N(Cc2cc(-c3ccc(C(O)C(F)(F)F)cc3)ccc2F)C(=O)c2sc3ccccc3c2Cl)CC1 (stereo partly drawn) [Compound 433, hydrochloride] : < 50 nM

From here, focus on the item given below.
I am curious: what EC50 value has been reported for CN[C@H]1CC[C@@H](N(Cc2cc(-c3ccncc3)ccc2OC)C(=O)c2sc3cccc(F)c3c2Cl)CC1 [Compound 359, dihydrochloride] ?
< 50 nM

* * *

tested on: sonic hedgehog pathway; assay: Human hedgehog reporter assay Daoy-GliLuc (DGL); format: cell-based; settings: Daoy human medulloblastoma cells, Gli-luciferase reporter; read-out: Daoy Avg. EC50
pEC50: −log10 of the molar value. Structures can show the parent of a compound that is named as a salt.
Listing of recorded pEC50 by entry.

# example entries with known answers
CN[C@H]1CC[C@@H](N(Cc2cc(-c3ccc(N)nc3)ccc2OC)C(=O)c2sc3cccc(F)c3c2Cl)CC1 [362 (R13), dihydrochloride] : > 7.30
COc1ccc(-c2cc[n+](C)cc2)cc1CN(C(=O)c1sc2c(F)ccc(F)c2c1Cl)[C@H]1CC[C@@H](N)CC1 [Compound 418] : > 7.30
CN[C@H]1CC[C@@H](N(Cc2cc(-c3cnccn3)ccc2OC)C(=O)c2sc3ccccc3c2Cl)CC1 [330 (R22)] : > 7.30
CN[C@H]1CC[C@@H](N(Cc2cc(-c3ccccn3)ccc2OC)C(=O)c2sc3c(F)ccc(F)c3c2Cl)CC1 [Compound 367, dihydrochloride] : > 7.30
CN[C@H]1CC[C@H](N(Cc2cc(-c3ccnc(C(=O)OC)c3)ccc2OC)C(=O)c2sc3c(F)ccc(F)c3c2Cl)CC1 [Compound R5] : > 7.30
CN[C@H]1CC[C@H](N(Cc2cc(-c3ccc(C(=O)C(F)(F)F)cc3)ccc2F)C(=O)c2sc3ccccc3c2Cl)CC1 [Compound 424, trifluoroacetate] : > 7.30
CN[C@H]1CC[C@H](N(Cc2cc(-c3ccccc3S(C)(=O)=O)ccc2OC)C(=O)c2sc3c(F)ccc(F)c3c2Cl)CC1 [Compound 411, hydrochloride] : 5.60 to 6.00
CN[C@H]1CC[C@H](N(Cc2cc(-c3cccc(C#N)c3)ccc2F)C(=O)c2sc3ccccc3c2Cl)CC1 [Compound 420, trifluoroacetate] : 6.60 to 7.30

May I ask what pEC50 has been recorded for CN[C@H]1CC[C@@H](N(Cc2cc(-c3cnccn3)ccc2OC)C(=O)c2sc3c(F)ccc(F)c3c2Cl)CC1 [344 (R14)] ?
> 7.30

Entry CN[C@H]1CC[C@@H](N(Cc2cc(-c3cc(C)nc(C)c3)ccc2OC)C(=O)c2sc3cccc(F)c3c2Cl)CC1 [Compound 353, dihydrochloride] please
6.60 to 7.30

Repeat with CN[C@H]1CC[C@@H](N(Cc2cc(-c3cccc(C#N)c3)ccc2OC)C(=O)c2sc3ccccc3c2Cl)CC1 [Compound 304, hydrochloride]
> 7.30

Another compound to look at: CN[C@H]1CC[C@@H](N(Cc2cc(-c3ccc(N(C)C(C)=O)cc3)ccc2OC)C(=O)c2sc3c(F)ccc(F)c3c2Cl)CC1 [Compound 336, hydrochloride]
> 7.30

And the next one, CN[C@H]1CC[C@@H](N(Cc2cc(-c3cc(C)nc(C)c3)ccc2OC)C(=O)c2sc3c(F)ccc(F)c3c2Cl)CC1 [Compound 350, dihydrochloride] ?
> 7.30

What do we get for CN[C@H]1CC[C@H](N(Cc2cc(-c3cccc(S(C)(=O)=O)c3)ccc2OC)C(=O)c2sc3c(F)ccc(F)c3c2Cl)CC1 [Compound 412, hydrochloride] ?
> 7.30

Moving on to CN[C@H]1CC[C@@H](N(Cc2cc(-c3ccc(C#N)cc3)ccc2OC)C(=O)c2sc3ccccc3c2Cl)CC1 [Compound 301, hydrochloride]
> 7.30

Item: CCOc1ccc(-c2cnc(NC)nc2)cc1CN(C(=O)c1sc2ccccc2c1Cl)[C@H]1CC[C@H](NC)CC1 [Compound 402, dihydrochloride]
6.60 to 7.30

Then this compound: CN[C@H]1CC[C@@H](N(Cc2cc(-c3cccnc3)ccc2OC)C(=O)c2sc3c(F)ccc(F)c3c2Cl)CC1 [Compound 361, dihydrochloride]
> 7.30

Next up: COc1ccc(-c2ccncc2F)cc1CN(C(=O)c1sc2c(F)ccc(F)c2c1Cl)[C@H]1CC[C@@H](N)CC1 [Compound 417]
> 7.30

Next compound: CN[C@H]1CC[C@@H](N(Cc2cc(-c3ccc(N(C)C(C)=O)cc3)ccc2OC)C(=O)c2sc3ccccc3c2Cl)CC1 [Compound 318, hydrochloride]
> 7.30

Proceed to CCOc1cc(-c2ccc(OC)c(CN(C(=O)c3sc4cccc(F)c4c3Cl)[C@H]3CC[C@H](NC)CC3)c2)ccn1 [Compound 415]
6.60 to 7.30

Follow-up entry: CN[C@H]1CC[C@H](N(Cc2cc(-c3cccnc3OC)ccc2OC)C(=O)c2sc3cccc(F)c3c2Cl)CC1 [Compound 413]
> 7.30

Consider next the compound CN[C@H]1CC[C@@H](N(Cc2cc(-c3ccc(C)nc3)ccc2OC)C(=O)c2sc3c(F)ccc(F)c3c2Cl)CC1 [Compound 334, bis(trifluoroacetate)] in the same way.
> 7.30

Item: CN[C@H]1CC[C@@H](N(Cc2cc(-c3ccc(C(C)=O)cc3)ccc2OC)C(=O)c2sc3ccccc3c2Cl)CC1 [Compound 303, hydrochloride]
> 7.30

Entry to check: CCOc1ccc(-c2cnc(N)nc2)cc1CN(C(=O)c1sc2ccccc2c1Cl)[C@H]1CC[C@@H](NC)CC1 [Compound 325, dihydrochloride]
> 7.30
